- Study System: T1, pm3 (Y17 sulfated; Y15 and Y16 not sulfated)
- T1 construct: also called sulfated CCR8 N-terminal peptide pm3
- T1 sequence (peptide, as listed by the source): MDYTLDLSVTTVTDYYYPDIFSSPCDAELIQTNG
- Assay Explanation: ELISA on coated peptide [cont.]
Assay Endpoint: binding result

binder="anti-CCR8 mAb 1-14 (antibody, V domains shown, Murine hybridoma mAb) VH: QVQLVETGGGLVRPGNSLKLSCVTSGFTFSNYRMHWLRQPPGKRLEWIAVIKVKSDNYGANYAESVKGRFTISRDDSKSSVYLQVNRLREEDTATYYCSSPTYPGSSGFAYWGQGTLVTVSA VL: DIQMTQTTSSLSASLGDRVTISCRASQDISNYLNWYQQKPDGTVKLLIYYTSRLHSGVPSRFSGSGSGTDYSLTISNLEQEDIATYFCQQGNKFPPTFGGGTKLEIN" endpoint_result=binds
binder="anti-CCR8 mAb 1-7 (antibody, V domains shown, Murine hybridoma mAb) VH: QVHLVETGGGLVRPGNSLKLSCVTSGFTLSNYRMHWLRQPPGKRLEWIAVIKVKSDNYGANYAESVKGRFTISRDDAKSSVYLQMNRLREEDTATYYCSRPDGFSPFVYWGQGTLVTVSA VL: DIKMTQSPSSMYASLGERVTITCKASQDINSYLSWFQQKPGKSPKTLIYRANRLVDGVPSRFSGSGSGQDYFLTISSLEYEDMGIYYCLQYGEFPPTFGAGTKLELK" endpoint_result=binds
